Molecular target: human Orexin-2 receptor (Homo sapiens, UniProt O43614)
Construct: expressed in transfected cells; host or cells: HEK293 cells (transient transfection, Genejuice); membranes
Sequence (O43614 whole entry): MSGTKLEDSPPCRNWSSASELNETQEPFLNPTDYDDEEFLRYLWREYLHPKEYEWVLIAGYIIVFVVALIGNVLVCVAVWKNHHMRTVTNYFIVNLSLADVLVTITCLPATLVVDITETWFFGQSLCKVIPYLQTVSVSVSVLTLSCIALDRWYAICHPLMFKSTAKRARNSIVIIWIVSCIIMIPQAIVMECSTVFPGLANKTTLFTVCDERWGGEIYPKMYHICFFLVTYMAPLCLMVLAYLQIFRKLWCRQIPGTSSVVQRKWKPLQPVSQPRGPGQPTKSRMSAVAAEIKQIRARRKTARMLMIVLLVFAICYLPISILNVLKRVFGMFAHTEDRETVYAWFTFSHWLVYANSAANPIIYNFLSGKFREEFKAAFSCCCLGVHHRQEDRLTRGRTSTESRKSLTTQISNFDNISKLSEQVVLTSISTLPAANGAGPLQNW
Assay: 3H-EMPA radioligand binding assay
Conditions: 3H-EMPA displacement, membranes of HEK293 cells transfected with human Orexin-2 receptor; KI by Cheng-Prussoff; read-out: OX2 pKi ave (converted)
PROPERTY: log10 Ki (log10 of the value in µM)

MOLECULE: Cc1cc(C)cc(N2C(=O)N(Cc3c(F)cccc3Cl)c3ccccc3S2(=O)=O)c1
log10 Ki: -3.20
//
MOLECULE: COc1cccc(N2C(=O)N(Cc3c(F)cccc3Cl)c3ccccc3S2(=O)=O)c1
log10 Ki: -1.80
//
MOLECULE: COc1ccc(N2C(=O)N(Cc3c(F)cc(Cl)cc3F)c3ncccc3S2(=O)=O)cc1OC
log10 Ki: -3.18
//
MOLECULE: Cc1ccc(N2C(=O)N(Cc3ccccc3C)c3ccccc3S2(=O)=O)cc1Cl
log10 Ki: -1.36
//
MOLECULE: Cc1ccc(N2C(=O)N(Cc3ccccc3F)c3ccccc3S2(=O)=O)cc1Cl
log10 Ki: -1.50
//
MOLECULE: COC(=O)c1ccc(OC)c(CN2C(=O)N(c3cc(OC)cc(OC)c3)S(=O)(=O)c3ccccc32)c1
log10 Ki: -1.87
//
MOLECULE: Cc1ccc(N2C(=O)N(Cc3c(F)cccc3Cl)c3ccccc3S2(=O)=O)cc1
log10 Ki: -2.25
//
MOLECULE: CSc1cccc(N2C(=O)N(C(C)c3ccccc3F)c3ccc(F)cc3S2(=O)=O)c1 (centres unmarked)
log10 Ki: -0.08

* * *

Target: human Orexin-2 receptor (Homo sapiens)
Construct: expressed in transfected cells; host or cells: HEK293 cells (transient transfection, Genejuice); membranes
Assay: 3H-EMPA radioligand binding assay
Conditions: 3H-EMPA displacement, membranes of HEK293 cells transfected with human Orexin-2 receptor; KI by Cheng-Prussoff; read-out: OX2 pKi ave (converted)

SMILES NOTATION: COc1cc(F)c(CN2C(=O)N(c3ccnc(OC)c3)S(=O)(=O)c3ccccc32)c(F)c1
SYSTEM TESTED: human Orexin-2 receptor (Homo sapiens)
Ki / nM: 3.31

SMILES NOTATION: Cc1ccc(N2C(=O)N(Cc3c(F)cccc3Cl)c3ccccc3S2(=O)=O)cc1Cl
SYSTEM TESTED: human Orexin-2 receptor (Homo sapiens)
Ki / nM: 2.51

SMILES NOTATION: COc1ccc(N2C(=O)N(Cc3c(F)cc(F)cc3Cl)c3ccccc3S2(=O)=O)cc1OC
SYSTEM TESTED: human Orexin-2 receptor (Homo sapiens)
Ki / nM: 1.05

SMILES NOTATION: CSc1cccc(N2C(=O)N(Cc3c(F)cccc3Cl)c3ccccc3S2(=O)=O)c1
SYSTEM TESTED: human Orexin-2 receptor (Homo sapiens)
Ki / nM: 1.05

SMILES NOTATION: Cc1ccc(N2C(=O)N(Cc3c(F)cccc3Cl)c3ccccc3S2(=O)=O)cc1C
SYSTEM TESTED: human Orexin-2 receptor (Homo sapiens)
Ki / nM: 1.12

SMILES NOTATION: COc1ccccc1N1C(=O)N(Cc2c(F)cccc2Cl)c2ccccc2S1(=O)=O
SYSTEM TESTED: human Orexin-2 receptor (Homo sapiens)
Ki / nM: 31.6

SMILES NOTATION: COc1ccc(N2C(=O)N(Cc3c(F)cc(O)cc3F)c3ccccc3S2(=O)=O)cc1OC
SYSTEM TESTED: human Orexin-2 receptor (Homo sapiens)
Ki / nM: 1.15

SMILES NOTATION: COc1cc(F)c(CN2C(=O)N(c3cnc(OC)c(OC)c3)S(=O)(=O)c3ccccc32)c(F)c1
SYSTEM TESTED: human Orexin-2 receptor (Homo sapiens)
Ki / nM: 0.363

SMILES NOTATION: COc1cc(OC)cc(N2C(=O)N(Cc3c(Cl)cccc3Cl)c3ccccc3S2(=O)=O)c1
SYSTEM TESTED: human Orexin-2 receptor (Homo sapiens)
Ki / nM: 2

SMILES NOTATION: COc1ccc(N2C(=O)N(Cc3ncc(F)cc3F)c3ncccc3S2(=O)=O)cc1OC
SYSTEM TESTED: human Orexin-2 receptor (Homo sapiens)
Ki / nM: 13.2

SMILES NOTATION: COc1ccc(N2C(=O)N(Cc3c(F)cccc3Cl)c3c(F)cccc3S2(=O)=O)cn1
SYSTEM TESTED: human Orexin-2 receptor (Homo sapiens)
Ki / nM: 43.7

SMILES NOTATION: O=C1N(Cc2c(F)cccc2Cl)c2ccccc2S(=O)(=O)N1Cc1ccccc1
SYSTEM TESTED: human Orexin-2 receptor (Homo sapiens)
Ki / nM: 26.3

SMILES NOTATION: Cc1ccc(Cl)cc1N1C(=O)N(Cc2c(F)cccc2Cl)c2ccccc2S1(=O)=O
SYSTEM TESTED: human Orexin-2 receptor (Homo sapiens)
Ki / nM: 25.1

SMILES NOTATION: Cc1cc(N2C(=O)N(Cc3c(F)cc(F)cc3F)c3ccccc3S2(=O)=O)cc(C)c1O
SYSTEM TESTED: human Orexin-2 receptor (Homo sapiens)
Ki / nM: 12.9

SMILES NOTATION: COc1ccc(N2C(=O)N(Cc3c(F)cc(F)cc3F)c3ncccc3S2(=O)=O)nc1OC
SYSTEM TESTED: human Orexin-2 receptor (Homo sapiens)
Ki / nM: 1.55

SMILES NOTATION: COc1cc(OC)cc(N2C(=O)N(Cc3ccccc3C)c3ccccc3S2(=O)=O)c1
SYSTEM TESTED: human Orexin-2 receptor (Homo sapiens)
Ki / nM: 29.5

SMILES NOTATION: COc1cc(N2C(=O)N(Cc3c(F)cc(F)cc3Cl)c3ccccc3S2(=O)=O)cc(OC)n1
SYSTEM TESTED: human Orexin-2 receptor (Homo sapiens)
Ki / nM: 0.575
